system: Vero cells; assay: Light-induced cytotoxicity in Vero cells; type: cell-based, African Green Monkey; settings: 0–10 µM, 465–480 nm 10 min, then 24 h in the dark
value.type: effect of blue light irradiation on cytotoxicity

compound	system.under.test	assay.result
CN(C)c1ccc(C#Cc2ccc3c4cccc5cccc(c6cccc2c63)c54)cc1 [Compound 14]	Vero cells	no effect
CCCCNC(=O)Cn1cc(C#Cc2ccc3c4cccc5cccc(c6cccc2c63)c54)c(=O)n(COC(=O)C(C)(C)C)c1=O [Compound 8]	Vero cells	no effect
O=C(NCCCCO)c1ccc(-c2ccc3c4cccc5cccc(c6cccc2c63)c54)s1 [Compound 17]	Vero cells	dramatically increased
CC(C)(C)C(=O)OCn1c(=O)c(C#Cc2ccc3c4cccc5cccc(c6cccc2c63)c54)cn(CC(=O)N(CCO)CCO)c1=O [Compound 13]	Vero cells	dramatically increased
O=c1[nH]c(=O)n([C@H]2C[C@H](O)[C@@H](CO)O2)cc1C#Cc1ccc2c3cccc4cccc(c5cccc1c52)c43 [Compound 2, 5-(perylen-3-yl)ethynyl-2′-deoxy-uridine]	Vero cells	dramatically increased
